# tested.on: Adrenergic receptor alpha-2 (Homo sapiens) (UniProt P08913+P18825+P18089)
# particulars: Cavia porcellus; Cardiac atrium
# Description: Alpha-2 adrenergic receptor activity in guinea pig right atrium
Each entry below lists one item and its recorded pD2 value.

{"smiles.repr": "CCCN(CCCCCCNCCOc1ccccc1OC)[C@@H]1CCc2c(ccc(O)c2O)C1", "tested.on": "Adrenergic receptor alpha-2 (Homo sapiens) (UniProt P08913+P18825+P18089)", "test.result": "< 5"}

Query: Checklist item: pD2 tested on Adrenergic receptor alpha-2 (Homo sapiens) (UniProt P08913+P18825+P18089), entry CCCCN(CCCCCCNCCOc1ccccc1OC)[C@H]1CCc2c(ccc(O)c2O)C1 , value?
Response: < 5

Query: Checklist item: pD2 tested on Adrenergic receptor alpha-2 (Homo sapiens) (UniProt P08913+P18825+P18089), entry CCCN(CCCCCCNCCOc1ccccc1OC)CCc1ccc(O)c(O)c1 , value?
Response: < 5

Query: Checklist item: pD2 tested on Adrenergic receptor alpha-2 (Homo sapiens) (UniProt P08913+P18825+P18089), entry COc1ccccc1OCCNCCCCCCN[C@H]1CCc2c(ccc(O)c2O)C1 , value?
Response: < 5

The reported numbers originate from ChEMBL document CHEMBL1129706.
